Reference source: ChEMBL document CHEMBL1155875

property.measured: pIC50
Units for pIC50: none; it is -log10 of a concentration expressed in mol/L.

Ask: Look up Liver carboxylesterase 1 (Homo sapiens) data: pIC50 of COC(=O)c1cccc(-c2cnc(C(=O)CCCCCCc3ccccc3)s2)n1 , then report it.
Result: 4.40

Ask: Report value: pIC50, system: Liver carboxylesterase 1 (Homo sapiens), molecule: O=C(CCCCCCc1ccccc1)c1nc(-c2ccccn2)no1
Sequence (P23141 whole entry): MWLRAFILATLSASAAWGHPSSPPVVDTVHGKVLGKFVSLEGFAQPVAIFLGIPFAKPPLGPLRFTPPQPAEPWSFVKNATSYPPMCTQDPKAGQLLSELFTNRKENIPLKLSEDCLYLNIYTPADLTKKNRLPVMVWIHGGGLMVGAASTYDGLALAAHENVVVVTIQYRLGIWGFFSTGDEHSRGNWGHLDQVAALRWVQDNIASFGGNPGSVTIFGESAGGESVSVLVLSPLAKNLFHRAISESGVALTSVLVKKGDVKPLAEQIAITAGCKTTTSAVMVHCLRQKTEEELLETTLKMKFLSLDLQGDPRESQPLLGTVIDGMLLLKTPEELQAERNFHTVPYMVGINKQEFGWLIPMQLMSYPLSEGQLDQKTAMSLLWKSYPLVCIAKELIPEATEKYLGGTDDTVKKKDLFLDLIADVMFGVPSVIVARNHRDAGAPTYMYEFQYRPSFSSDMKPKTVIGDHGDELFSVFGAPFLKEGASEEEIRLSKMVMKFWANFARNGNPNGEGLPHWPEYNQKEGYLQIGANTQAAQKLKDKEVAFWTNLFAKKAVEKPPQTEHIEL
Result: 7.52

Ask: Report pIC50 under test system Liver carboxylesterase 1 (Homo sapiens) for O=C(CCCCCCc1ccccc1)c1nnc(-c2ccccn2)s1 .
Result: 5.82

Ask: Quote pIC50 with test system Liver carboxylesterase 1 (Homo sapiens) for O=C(CCCCCCc1ccccc1)c1nnn(-c2ccccn2)n1
Result: 6.92

Ask: Specify the recorded pIC50 for O=C(CCCCCCc1ccccc1)c1ncc(-c2ccco2)o1 , system: Liver carboxylesterase 1 (Homo sapiens).
Result: 6.52

Ask: Give the observed pIC50 of O=C(CCCCCCc1ccccc1)c1ncc(-c2ccccn2)s1 for Liver carboxylesterase 1 (Homo sapiens).
Result: 5.10

Ask: Please report pIC50 with Liver carboxylesterase 1 (Homo sapiens) for item COC(=O)c1nnc(C(=O)CCCCCCc2ccccc2)o1 .
Result: 5.70

Ask: State recorded pIC50 with Liver carboxylesterase 1 (Homo sapiens), entry O=C(CCCCCCc1ccccc1)c1nnc(-c2ccco2)o1 , no comment.
Result: 7.10

Ask: For Liver carboxylesterase 1 (Homo sapiens), give pIC50 of the listed molecule: COC(=O)c1cccc(-c2noc(C(=O)CCCCCCc3ccccc3)n2)n1
Result: 6.82

---

- procedure.text: Selectivity ratio of IC50 for TGH over IC50 for rat FAAH expressed in Escherichia coli
Could you please classify the records by Ratio IC50 using these ranges: low range = under 1, mid range = from 1 up to 10, high range = 10 and over

Ask: Looking at O=C(CCCCCCc1ccccc1)c1nnc(-c2ccccn2)o1 , which class would you pick?
Result: high range

Ask: Which category fits this record: O=C(O)c1cccc(-c2nc(C(=O)CCCCCCc3ccccc3)no2)n1
Result: high range

Ask: Just checking, what class would you give O=C(CCCCCCc1ccccc1)c1nnn[nH]1 here?
Result: low range

Ask: Which bin should I file COC(=O)c1cccc(-c2ccc(C(=O)CCCCCCc3ccccc3)nn2)n1 under?
Result: high range

Ask: Where would O=C(CCCCCCc1ccccc1)c1nnco1 land among the classes by reported Ratio IC50?
Result: mid range

Ask: Kindly identify the class of O=C(CCCCCCc1ccccc1)c1nnc(-c2ccco2)o1 .
Result: high range

Ask: Category of O=C(CCCCCCc1ccccc1)c1ncno1 :
Result: low range

Ask: Band assignment needed for O=C(CCCCCCc1ccccc1)c1noc(-c2ccccn2)n1 please.
Result: high range

Ask: Lab log: COC(=O)c1cccc(-c2nnc(C(=O)CCCCCCc3ccccc3)o2)n1 — assign Ratio IC50 category
Result: mid range

---

- target.or.system: Fatty-acid amide hydrolase 1 (Rattus norvegicus, UniProt P97612)
- Sequence (P97612 whole entry): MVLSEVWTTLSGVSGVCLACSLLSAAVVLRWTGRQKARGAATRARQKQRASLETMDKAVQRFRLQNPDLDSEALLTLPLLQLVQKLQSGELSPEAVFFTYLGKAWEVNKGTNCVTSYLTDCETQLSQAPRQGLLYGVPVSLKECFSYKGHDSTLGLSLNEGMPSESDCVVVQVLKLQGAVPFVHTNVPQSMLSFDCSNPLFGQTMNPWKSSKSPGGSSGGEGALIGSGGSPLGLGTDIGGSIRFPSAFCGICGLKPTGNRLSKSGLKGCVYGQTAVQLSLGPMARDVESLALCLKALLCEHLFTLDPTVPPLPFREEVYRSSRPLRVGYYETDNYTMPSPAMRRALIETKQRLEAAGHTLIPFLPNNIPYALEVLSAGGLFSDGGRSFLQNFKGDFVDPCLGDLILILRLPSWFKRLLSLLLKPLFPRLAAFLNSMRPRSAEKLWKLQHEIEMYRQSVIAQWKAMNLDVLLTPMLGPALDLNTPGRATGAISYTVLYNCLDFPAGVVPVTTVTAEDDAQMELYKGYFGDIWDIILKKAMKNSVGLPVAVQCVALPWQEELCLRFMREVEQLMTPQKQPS
- procedure.text: Inhibition of rat FAAH expressed in Escherichia coli at pH 9.0
For each entry below, report its Ki value.
Only the number, expressed in nM, is required.

Ask: In one line, give reported Ki of the entry COC(=O)c1nc(C(=O)CCCCCCc2ccccc2)no1 .
Result: 7

Ask: Determine from records and report Ki for N#Cc1cccc(-c2ccc(C(=O)CCCCCCc3ccccc3)nn2)n1
Result: 390

---

Please provide measured Ratio IC50 for the entries that follow.
- procedure.text: Selectivity ratio of IC50 for TGH over IC50 for rat FAAH expressed in Escherichia coli
Format: numeric value only, no unit, no commentary.

Ask: Supply recorded Ratio IC50 for COC(=O)c1nc(C(=O)CCCCCCc2ccccc2)no1 here.
Result: 20

Ask: Return value of Ratio IC50 for input O=C(CCCCCCc1ccccc1)c1nncs1 , no commentary.
Result: 1

Ask: For the compound O=C(CCCCCCc1ccccc1)c1ncc(-c2cccs2)o1 , report Ratio IC50.
Result: 0.008

Ask: Supply reported Ratio IC50 belonging to this compound: O=C(CCCCCCc1ccccc1)c1nnc(-c2ccccn2)s1
Result: 150

Ask: Hello, please tell me recorded Ratio IC50 for this one: O=C(CCCCCCc1ccccc1)c1nc(-c2ccccn2)no1
Result: 10

Ask: Given O=C(CCCCCCc1ccccc1)c1ncon1 , respond with its Ratio IC50.
Result: 0.02

Ask: Quote Ratio IC50 reported for O=C(CCCCCCc1ccccc1)c1ncc(-c2ccco2)o1 please.
Result: 4

Ask: Entry COC(=O)c1cccc(-c2noc(C(=O)CCCCCCc3ccccc3)n2)n1 needs its Ratio IC50 filled in; supply it.
Result: 50

---

- target.or.system: Fatty-acid amide hydrolase 1 (Rattus norvegicus, UniProt P97612)
- Sequence (P97612 whole entry): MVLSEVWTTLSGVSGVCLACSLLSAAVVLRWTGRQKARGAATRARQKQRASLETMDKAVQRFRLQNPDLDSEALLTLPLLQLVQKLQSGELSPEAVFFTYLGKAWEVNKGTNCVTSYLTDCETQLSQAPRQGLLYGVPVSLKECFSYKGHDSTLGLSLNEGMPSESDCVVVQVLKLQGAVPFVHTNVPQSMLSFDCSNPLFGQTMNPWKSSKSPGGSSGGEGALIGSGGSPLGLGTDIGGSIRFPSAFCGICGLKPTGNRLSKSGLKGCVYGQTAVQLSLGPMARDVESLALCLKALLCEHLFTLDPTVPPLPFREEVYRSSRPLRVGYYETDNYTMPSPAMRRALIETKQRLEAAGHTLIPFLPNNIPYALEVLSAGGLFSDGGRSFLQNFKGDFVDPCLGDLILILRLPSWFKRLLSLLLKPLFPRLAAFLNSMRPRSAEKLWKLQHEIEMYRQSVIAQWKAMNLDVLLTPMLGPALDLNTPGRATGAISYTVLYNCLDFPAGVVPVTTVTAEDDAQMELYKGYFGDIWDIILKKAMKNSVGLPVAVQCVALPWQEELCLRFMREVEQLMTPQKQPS
- procedure.text: Inhibition of rat FAAH expressed in Escherichia coli
Give measured Ki for each item. Keep answers brief.
Reply numerically in µM, unit not repeated.

Ask: Assign Ki to the following record: O=C(CCCCCCc1ccccc1)c1cnc(-c2ccccn2)o1
Result: 22

Ask: Give Ki for CCCCCCCC/C=C\CCCCCCCC(=O)c1nnc(-c2ccco2)o1
Result: 0.005

Ask: Read the entry CCCCCCCC/C=C\CCCCCCCC(=O)c1ncc(-c2cccs2)o1 and write its reported Ki.
Result: 0.089

Ask: Annotate the compound O=C(O)c1cccc(-c2nc(C(=O)CCCCCCc3ccccc3)no2)n1 with its measured Ki.
Result: 0.053

Ask: Please supply the value of reported Ki for the item Cn1nc(C(=O)CCCCCCc2ccccc2)nc1-c1ccccn1
Result: 7.3

Ask: Return the recorded Ki value; entry: c1ccc(CCCCCCCc2nnc(-c3ccco3)o2)cc1
Result: 18

Ask: Tell us which Ki value is on record for O=C(CCc1ccc(-c2ccccc2)cc1)c1nnc(-c2cccc(Br)n2)o1
Result: 0.0036

Ask: Please indicate Ki recorded for CCCCCCCC/C=C\CCCCCCCC(=O)c1nnc(-c2ccccn2)s1
Result: 0.02

Ask: Provide one value: measured Ki of Cn1c(C(=O)CCCCCCc2ccccc2)nnc1-c1ccccn1
Result: 30

Ask: Give the value of Ki reported for the following: O=C(CCCCCCc1ccccc1)c1noc(-c2ccccn2)n1
Result: 0.0011

Ask: Identify Ki associated with the compound O=C(CCCCCCc1ccccc1)c1nc(-c2cccc(I)n2)no1
Result: 0.001

Ask: Fill in Ki for record CCCCCCCC/C=C\CCCCCCCC(=O)c1nncs1
Result: 0.17

Ask: Return Ki (reported value) for this compound: CCCCCCCC/C=C\CCCCCCCC(=O)c1nnc(-c2cccs2)o1
Result: 0.008

Ask: Check the records and state Ki for Cn1nc(-c2ccccn2)nc1C(=O)CCCCCCc1ccccc1
Result: 30

Ask: Output Ki of Cn1nnnc1C(=O)CCCCCCc1ccccc1
Result: 0.018

Ask: # return recorded Ki for input O=C(CCCCCCc1ccccc1)c1nc(-c2cccc(Cl)n2)no1
Result: 0.001

Ask: Check the records and state Ki for O=C(CCc1ccc(-c2ccccc2)cc1)c1nnc(-c2ccccn2)o1
Result: 0.0003

Ask: Dear colleague, please send me the reported Ki for O=C(CCCCCCc1ccccc1)c1nnc(-c2cccc(Br)n2)s1 when you can.
Result: 0.037

Ask: Fill in Ki for record CCCCCCCC/C=C\CCCCCCCC(=O)c1nnc(-c2ccco2)s1
Result: 0.15

Ask: Note down Ki recorded for O=C(O)c1cccc(-c2nnc(C(=O)CCc3ccc(-c4ccccc4)cc3)o2)n1
Result: 0.048

Ask: Look up and state reported Ki for O=C(CCCCCCc1ccccc1)c1nc(-c2cccc(Br)n2)no1
Result: 0.00063

Ask: For the compound Cn1nnc(C(=O)CCCCCCc2ccccc2)n1 , give its reported Ki.
Result: 0.01

Ask: Output Ki of O=C(CCCCCCc1ccccc1)c1nnc(-c2cccc(Br)n2)o1
Result: 0.0008

Ask: Provide one value: measured Ki of c1ccc(CCCCCCCc2nnc(-c3ccccn3)o2)cc1
Result: 60

Ask: Find the measured Ki of COC(=O)c1cccc(-c2nnc(C(=O)CCc3ccc(-c4ccccc4)cc3)o2)n1 and report it.
Result: 0.0016

Ask: Consider the compound N#Cc1cccc(-c2noc(C(=O)CCCCCCc3ccccc3)n2)n1 . State its measured Ki.
Result: 0.00038
